- assay target: SCRIB_3, Q14160
- Sequence (Q14160 999-1103): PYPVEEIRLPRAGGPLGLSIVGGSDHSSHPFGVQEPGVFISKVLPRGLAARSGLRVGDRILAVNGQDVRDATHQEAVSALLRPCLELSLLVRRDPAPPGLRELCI
- procedure details: holdup assay
- Design: key: below the threshold = too weak to quantify, mostly under pKd 3.1 to 4
- condition summary: plain residues with an end cap or a label only (N-terminal biotin on a linker: ado-ado)
Each record here notes measured pKd.
Respond numerically, and do not add a unit to the figure.

Consider the reported pKd for these binders:
[
  {
    "binder": "PRISRSQSEL [CCDC134, Q9H6E4]",
    "property name": "pKd",
    "number": 4.06
  },
  {
    "binder": "DDENIRTSDV [PLEKHA2, Q9HB19]",
    "property name": "pKd",
    "number": 3.99
  }
]

Entry under review: RRISSLESEV [GRIN2C, Q14957] . Reported pKd?
4.55

Entry under review: TACCHSETVV [TGFA, P01135] . Reported pKd?
4.14

Entry under review: PRAEAEDSFL [PDGFRB, P09619] . Reported pKd?
4.06

Entry under review: ETQVTAETVI [TMEM225B, P0DP42] . Reported pKd?
4.34

Entry under review: PKRSFIESNV [TANC1, Q9C0D5] . Reported pKd?
5.05

Data origin: paper PMC9482650
